- TESTED_SYSTEM: PRMT5/MEP50 (Homo sapiens)
- Construct: Full-length human PRMT5 (NP_006100)
- Sequence (O14744 whole entry): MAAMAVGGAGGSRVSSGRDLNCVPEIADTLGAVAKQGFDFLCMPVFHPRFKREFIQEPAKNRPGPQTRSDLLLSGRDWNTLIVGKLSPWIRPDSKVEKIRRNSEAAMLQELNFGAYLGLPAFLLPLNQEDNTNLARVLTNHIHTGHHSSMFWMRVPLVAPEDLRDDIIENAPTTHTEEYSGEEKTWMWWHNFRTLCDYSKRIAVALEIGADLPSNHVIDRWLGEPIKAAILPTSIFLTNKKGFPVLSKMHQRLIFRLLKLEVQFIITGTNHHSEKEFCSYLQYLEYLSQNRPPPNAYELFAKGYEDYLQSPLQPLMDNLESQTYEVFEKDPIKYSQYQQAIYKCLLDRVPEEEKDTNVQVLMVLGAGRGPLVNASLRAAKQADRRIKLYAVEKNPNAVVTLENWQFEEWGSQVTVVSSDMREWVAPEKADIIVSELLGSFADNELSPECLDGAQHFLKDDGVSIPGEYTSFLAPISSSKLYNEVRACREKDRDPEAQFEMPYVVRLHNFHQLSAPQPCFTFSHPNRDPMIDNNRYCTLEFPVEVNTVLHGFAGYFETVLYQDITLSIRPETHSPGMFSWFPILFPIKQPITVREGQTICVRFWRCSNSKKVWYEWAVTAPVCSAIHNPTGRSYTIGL
- Sequence (Q9BQA1 whole entry partner): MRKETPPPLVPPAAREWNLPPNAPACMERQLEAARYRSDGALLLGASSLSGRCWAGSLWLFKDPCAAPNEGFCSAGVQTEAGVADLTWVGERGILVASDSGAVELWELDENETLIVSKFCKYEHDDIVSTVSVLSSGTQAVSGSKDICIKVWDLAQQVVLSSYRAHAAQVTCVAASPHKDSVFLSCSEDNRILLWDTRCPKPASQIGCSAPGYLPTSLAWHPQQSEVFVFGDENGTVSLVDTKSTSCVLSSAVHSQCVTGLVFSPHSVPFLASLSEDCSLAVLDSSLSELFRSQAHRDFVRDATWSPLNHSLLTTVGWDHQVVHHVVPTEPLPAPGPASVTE
- ASSAY_TEXT: PRMT5/MEP50 enzyme assay on peptide substrates (3H-SAM Flashplate)
- RECORDED_CONDITIONS: PRMT5/MEP50 10 nM, H4 1-15aa peptide 100 nM, 3H-SAM 1 μM
pIC50: −log10 of the molar value.
Items are presented alongside their recorded pIC50.

Please review the following examples before continuing.
COMPOUND | TESTED_SYSTEM | pIC50
CC(=O)N1CCC(c2ccc3nc(C(=O)NC[C@H](O)CN4CCc5ccccc5C4)cn3c2)CC1 | PRMT5/MEP50 (Homo sapiens) | 6.00 to 8.00
Cc1ccc(-c2ccc3nc(C(=O)NC[C@H](O)CN4CCc5ccccc5C4)cn3c2)nn1 | PRMT5/MEP50 (Homo sapiens) | 6.00 to 8.00
CC(C)c1ccc2nc(C(=O)NCC(O)CN3CCc4ccccc4C3)cn2c1 (stereo in doubt) | PRMT5/MEP50 (Homo sapiens) | 6.00 to 8.00

What value of pIC50 has been recorded for this entry: Cc1c(C(=O)NC[C@H](O)CN2CCc3ccccc3C2)nc2ccc(C(F)(F)F)nn12
5.30 to 6.00

Cited source for all entries: patent US11459338B2
